Molecular target: Endothelial lipase (EL) (Homo sapiens (Human))
Sequence (Q9Y5X9 21-500): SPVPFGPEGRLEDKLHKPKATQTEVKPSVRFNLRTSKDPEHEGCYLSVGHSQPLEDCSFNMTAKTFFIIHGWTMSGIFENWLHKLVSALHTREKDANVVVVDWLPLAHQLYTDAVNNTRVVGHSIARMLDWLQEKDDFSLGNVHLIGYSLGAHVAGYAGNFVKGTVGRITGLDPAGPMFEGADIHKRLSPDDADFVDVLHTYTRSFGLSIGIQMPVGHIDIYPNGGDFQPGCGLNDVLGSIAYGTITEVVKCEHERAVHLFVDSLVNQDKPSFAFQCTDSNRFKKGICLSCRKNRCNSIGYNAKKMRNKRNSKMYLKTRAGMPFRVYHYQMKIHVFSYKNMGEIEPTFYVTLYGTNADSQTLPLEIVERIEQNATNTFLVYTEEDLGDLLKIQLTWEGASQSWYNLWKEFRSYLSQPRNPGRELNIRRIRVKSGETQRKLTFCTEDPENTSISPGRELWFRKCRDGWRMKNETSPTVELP
Test: EL assay: endothelial lipase activity with fluorescent substrate A10070 in DMPG vesicles
Type: biochemical
property: IC50 (nM)

COC(C)(C)CNC(=O)c1ccc(-c2ccc3nc(C(C(=O)NCCS(N)(=O)=O)S(=O)(=O)CC4CC4)sc3c2)cc1 (stereo not shown); 0.9

(1) Cc1nnc(CNC(=O)C(c2nc3cc(C)c(-c4ccccc4)cc3s2)S(C)(=O)=O)o1 (stereo not shown)
(2) CC(=O)Nc1ccc(-c2ccc3nc(C(C(=O)NCCS(N)(=O)=O)S(=O)(=O)CCC(F)(F)F)sc3c2)cc1 (stereo not shown) [Example B236]
(3) COCCNC(=O)c1ccc(-c2ccc3nc(C(C(=O)NCCS(N)(=O)=O)S(=O)(=O)Cc4cccc(C#N)c4)sc3c2)cc1 (stereo not shown)
[ask] Exam item: list the entries in increasing order of IC50. Use the labels to give the requested order.
[reply] 2, 3, 1
